test: Protein binding in human plasma; format: ADME, cell-free; conditions: read-out: PPB
Readout label: fraction unbound

Sample CCC[C@@H](NC(=O)c1cccc2c1CC(=O)N2)[C@@H](O)c1cccc(F)c1C — what was its fraction unbound?
< 0.02

====

assay: Lipophilicity, log D of compound by chromatographic method; format: physicochemical
Readout label: chromatographic logD
Give bare numbers.

Please review the entries below; each comes with its answer.
1) CCC[C@@H](NC(=O)c1cccc2c1CC(=O)N2)[C@@H](O)c1cc(Cl)ccc1C	4.3
2) CCC[C@@H](NC(=O)c1cccc2c1CC(=O)N2)[C@@H](O)c1cccc(F)c1Cl	3.7
3) CCC[C@@H](NC(=O)c1cncc2[nH]c(=O)[nH]c12)[C@@H](O)c1cccc(Cl)c1C	3.4
4) CCC[C@@H](NC(=O)c1cccc2c1CC(=O)N2)[C@@H](O)c1cnccc1C	1.9
5) CCC[C@@H](NC(=O)c1cccc2c1CC(=O)N2)[C@@H](O)c1cccc(Cl)c1C	4.3

# per-item lookup of chromatographic logD; items listed below
1. CCC[C@@H](NC(=O)c1cccc2c1CC(=O)N2)[C@@H](O)c1ccccc1C
2. CCC[C@@H](NC(=O)c1cccc2c1CC(=O)N2)[C@@H](O)c1cccc(Cl)c1

3.4
3.7
